assayMethodText: Stability in western atherogenic diet fed ApoE-/- mouse plasma assessed as intact compound level at ~75 MBq, iv administered as bolus injection pretreated with 6-fluoro-N-(4-fluoro-3-methylphenyl)methyl)-5-(2-fluoroethoxy)-4-oxo-3,4-dihydroquinazoline-2-carboxamide followed by tracer addition and measured after 30 mins by gamma counter analysis
Assay type: ADME, organism-based
studyConditions: read-out: Stability
endpointLabel: remaining at 0.5 h (%)
Answers are plain numbers, in %.

Ask: // query remaining at 0.5 h value for entry Cc1cc(CNC(=O)c2nc3ccc(F)c(OCC[18F])c3c(=O)[nH]2)ccc1F
Reply: 78

---

Give measured IC50 for each item. Keep answers brief.
targetDesc: Neutrophil collagenase (Homo sapiens)
Sequence (P22894 whole entry): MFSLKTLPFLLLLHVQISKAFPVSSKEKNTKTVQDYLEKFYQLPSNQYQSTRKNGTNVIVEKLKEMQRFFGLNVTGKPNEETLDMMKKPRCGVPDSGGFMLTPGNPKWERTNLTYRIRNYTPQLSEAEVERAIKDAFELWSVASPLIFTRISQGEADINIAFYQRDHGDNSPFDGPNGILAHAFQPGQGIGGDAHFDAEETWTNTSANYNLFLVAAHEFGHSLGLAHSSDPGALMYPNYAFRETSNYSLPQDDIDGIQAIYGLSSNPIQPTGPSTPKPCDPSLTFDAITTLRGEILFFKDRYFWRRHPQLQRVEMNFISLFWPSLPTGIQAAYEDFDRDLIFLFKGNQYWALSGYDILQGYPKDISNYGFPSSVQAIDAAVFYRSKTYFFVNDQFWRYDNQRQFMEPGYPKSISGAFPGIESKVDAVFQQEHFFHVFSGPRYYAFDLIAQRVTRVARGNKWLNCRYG
assayMethodText: Inhibition of human recombinant MMP-8 incubated for 30 mins by fluorescence based analysis

Look over these answered cases.
structureSmilesString	targetDesc	IC50
Cc1cc(CNC(=O)c2nc3ccc(F)c(OCCc4ccc(C(=O)O)cc4)c3c(=O)[nH]2)ccc1F	Neutrophil collagenase (Homo sapiens)	1700 nM
O=C(O)c1ccc(CCOc2c(F)ccc3nc(C(=O)NCc4cccc(O)c4)[nH]c(=O)c23)cc1	Neutrophil collagenase (Homo sapiens)	2100 nM
COc1cccc(CNC(=O)c2nc3ccc(F)c(OCCc4ccc(C(=O)O)cc4)c3c(=O)[nH]2)c1	Neutrophil collagenase (Homo sapiens)	2400 nM

Ask: I'm curious: which IC50 was measured for Cc1cc(CNC(=O)c2nc3ccc(F)c(OCCc4ccc(O)cc4)c3c(=O)[nH]2)ccc1F tested on Neutrophil collagenase (Homo sapiens)?
Reply: 2200 nM

Data origin: ChEMBL document CHEMBL5338774
